Hello, the source for this data is the supplement of paper PMC9170038, in case you need it.

test system: MS2 coat protein; experiment: apparent KD of MS2 coat protein; designed switch direction (-1 OFF switch, 1 ON switch): 1; higher = weaker reporter binding; details: Eterna round: R95; input ligand: FMN 200 uM
Reported apparent KD of MS2 coat protein values follow for various sequences
Give a bare numeral; the unit nM is implied.

Incoming: Query: apparent KD of MS2 coat protein; subject: AGUCCAGCCUGAGCUGGACAAAAGCAUGUACAUGAGGAUCACCCAUGUCAUGUACAAGCUUUUUGCUCGUCUUAAAU [Mat - hsa-mir-208a - Mod of JL - D22] (puzzle: Sensor for hsa-mir-208a)
Outgoing: 585

Incoming: Query: apparent KD of MS2 coat protein; subject: UCCGCUAUCUAGAAGGAUAUGCGUAAAUAAACAUGAGGAUCACCCAUGUACCGGCGAAAGCCGGUGCAGAAGGUUUAGCUAGUGA [Xeisgexe] (puzzle: Same State 2)
Outgoing: 38.2

Incoming: Query: apparent KD of MS2 coat protein; subject: CGUCCGGCCUGUGCUGGCCGGUGGCGUGUACAUGAGGAUCACCCAUGUUCUUGUGCUGGCUGUUUGCUCGUCUUGUG [salish99_mir208a_r3_025] (puzzle: Sensor for hsa-mir-208a)
Outgoing: 44.8

Incoming: Query: apparent KD of MS2 coat protein; subject: CGCCGACAUGAGGAUCACCCAUGUGAGCGACUCACAGGAUAUACGCGAUAACAACUUCGCGUAGAAGGGUGCUCCU [Esvezaza] (puzzle: Same State 1)
Outgoing: 14.4

Incoming: Query: apparent KD of MS2 coat protein; subject: CAAGCUUGGGUCUUCCCGCUCGUCUACAAACAUGAGGAUCACCCAUGUAUACUCUUCGCAUCAAUUCUAUCUCUUGG [Onraenbi] (puzzle: Sensor for hsa-mir-208a)
Outgoing: 210

Incoming: Query: apparent KD of MS2 coat protein; subject: AUUAGUUGCGGGCAGGAUAUGUAUUAAAAUACAUGAGGAUCACCCAUGUGCGGGUAUAACACCCGACAGAAGGGCCAAUCGCGAC [Mat - Same State 2 - Mod of UCT - D93] (puzzle: Same State 2)
Outgoing: 25.4

---

test system: MS2 coat protein; experiment: apparent KD of MS2 coat protein; designed switch direction (-1 OFF switch, 1 ON switch): 1; higher = weaker reporter binding; settings: Eterna round: R95; input ligand: microRNA oligo, concentration not stated
measure: apparent KD of MS2 coat protein

Known apparent KD of MS2 coat protein results, listed for orientation:
{"construct-sequence": "AUUAAACAUGAGGAUCACCCAUGUCAACAAAGUCGAGGAUAUGGGCAAAUAAAAUUAGAACCAGAAGGCGAAUAAU [salish99_ss1_r3_063] (puzzle: Same State 1)", "assay-value": "167 nM"}
{"construct-sequence": "AUUAAACAUGAGGAUCACCCAUGUCAACAAAGUCGAGGAUAUGGGCAAAUAAAAUAAGUACCAGAAGGCGAAUAAU [salish99_ss1_r3_066] (puzzle: Same State 1)", "assay-value": "149 nM"}
{"construct-sequence": "CGCCGACAUGAGGAUCACCCAUGUGAGCGACUCACAGGAUAUACGCGAUAACAACUUCGCGUAGAAGGGUGCUCCU [Esvezaza] (puzzle: Same State 1)", "assay-value": "12.2 nM"}

Incoming: Query: apparent KD of MS2 coat protein; subject: AGAGCCGGCACCGAGGAUAUUCAUAUUAAAACAUGAGGAUCACCCAUGUAGGCCAGAAGGCCUUGGGAGAAGGCGGAUCGGCUCG [Xeonanis - 7] (puzzle: Same State 2)
Outgoing: 524 nM

Incoming: Query: apparent KD of MS2 coat protein; subject: AAUUAUUGACAUGAGGAUCACCCAUGUAAAGCAUGGAUUAACAAGCUACAAGCUUUUUGCUCGUCUUAUCCUAUAGG [Improved Bojan's design] (puzzle: Sensor for hsa-mir-208a version 2)
Outgoing: 34.6 nM
